Test system: P388 leukemia ip, CD2F1 mice, survival T/C
Method summary: NCI In Vivo Anticancer Drug Screen. Data for tumor model P388 Leukemia (intraperitoneal) in CD2F1 (CDF1) mice
Condition summary: endpoint: median survival time; dose: 400.0 mg/kg/injection; schedule: Q01DX001 (ip); vehicle: saline; higher = longer survival
Toxic doses and inconclusive results are not listed.
Recorded T/C for the following compounds

These recorded examples may help you get a feel for the data.
Compound: N#CC(N)(C#N)C(N)=O
T/C: 103 % of control
--
Compound: O=C1c2ccccc2C(=O)N1C/C=C\c1ccccc1
T/C: 107 % of control

(Q) So what's the measured T/C for this one? CC(O)(CO)C(C)(O)c1cn(O)c(=N)c(C(=O)OCc2ccccc2)n1 (configuration not stated)
(A) 88 % of control

(Q) Here is the next compound: CC(CCCN)Nc1cc(O)cc2cccnc12 (configuration not stated)
(A) 89 % of control

(Q) Item: O=C(O)CN(CC(=O)O)C1CC1N(CC(=O)O)CC(=O)O (configuration not stated)
(A) 97 % of control

(Q) CO/C=N/c1cn2c(n1)CN=C2 , same question.
(A) 96 % of control

(Q) Again, but for C=C1CC2(CCCc3ccccc32)OC1=O (configuration not stated)
(A) 101 % of control

* * *

Catalogue of compounds with associated T/C
System: P388 leukemia ip, CD2F1 mice, survival T/C
Method summary: NCI In Vivo Anticancer Drug Screen. Data for tumor model P388 Leukemia (intraperitoneal) in CD2F1 (CDF1) mice
Condition summary: endpoint: median survival time; dose: 400.0 mg/kg/injection; schedule: Q04DX003 (ip); vehicle: saline with Tween-80; higher = longer survival
Toxic doses and inconclusive results are not listed.

Compound: FC(F)(F)COP(OCC(F)(F)F)OCC(F)(F)F
Recorded value: 104 % of control
--
Compound: CCCCCCCCCCCCCCCCOc1ccccc1CNc1cc(Cl)ccc1Cl
Recorded value: 86 % of control
--
Compound: O=C(/C=C/C(=O)Oc1cc(Cl)c(Cl)cc1Cl)Oc1cc(Cl)c(Cl)cc1Cl
Recorded value: 97 % of control
--
Compound: Clc1ncnc2c1ncn2C1CCCCO1 (centres undefined)
Recorded value: 100 % of control

(Q) So what does the record say about T/C for COc1cc(/C=C/C(N)=O)cc(OC)c1OC ?
(A) 100 % of control

(Q) # repeat for Nc1c(Cl)c(Cl)cc(Cl)c1Cl
(A) 104 % of control

(Q) Now consider ClC1(c2ccccc2)c2ccc(Br)cc2-c2cc(Br)ccc21 .
(A) 118 % of control

(Q) Entry to check: NC(=O)NC1CCCC1
(A) 100 % of control

(Q) Queued: Nc1nc(N)c(N)c(N)n1
(A) 96 % of control

(Q) Here is the next compound: Cc1cccc2nnc(CCCc3nnc4cccc(C)n34)n12
(A) 96 % of control

(Q) // repeat for CCCCN(CCCC)CCC(=O)OCC and report
(A) 109 % of control

* * *

The entries below are paired with their reported T/C.
Tested on: P388 leukemia ip, CD2F1 mice, survival T/C
Method summary: NCI In Vivo Anticancer Drug Screen. Data for tumor model P388 Leukemia (intraperitoneal) in CD2F1 (CDF1) mice
Condition summary: endpoint: median survival time; dose: 3.13 mg/kg/injection; schedule: Q01DX009 (ip); vehicle: other; higher = longer survival
Inconclusive results and toxic doses are left out.

Below: 3 compounds and their reported T/C.
Compound: COc1cccc2c1C(=O)c1c(O)c3c(c(O)c1C2=O)CC(O)(C(=O)COC(C)C)CC3O (centres undefined)
Recorded value: 100 % of control

Compound: COc1cccc2c1C(=O)c1c(O)c3c(c(O)c1C2=O)C/C(=N/O)CC3OC1CC(NC(=O)C(F)(F)F)C(O)C(C)O1 (centres undefined)
Recorded value: 88 % of control

Compound: COc1cccc2c1C(=O)c1c(O)c3c(c(O)c1C2=O)CC(O)(c1cscn1)CC3O (centres undefined)
Recorded value: 107 % of control

Moving on to the next compound.
(Q) # query: T/C of entry CCOC(=O)N(NC(=O)c1ccc(N(CCCl)CCCl)cc1)C(C)=O
(A) 103 % of control
